Recorded pIC50 values for a group of compounds are listed next.
ASSAY_TARGET: NaV1.6 (Homo sapiens (Human))
Sequence (Q9UQD0 whole entry, looked up): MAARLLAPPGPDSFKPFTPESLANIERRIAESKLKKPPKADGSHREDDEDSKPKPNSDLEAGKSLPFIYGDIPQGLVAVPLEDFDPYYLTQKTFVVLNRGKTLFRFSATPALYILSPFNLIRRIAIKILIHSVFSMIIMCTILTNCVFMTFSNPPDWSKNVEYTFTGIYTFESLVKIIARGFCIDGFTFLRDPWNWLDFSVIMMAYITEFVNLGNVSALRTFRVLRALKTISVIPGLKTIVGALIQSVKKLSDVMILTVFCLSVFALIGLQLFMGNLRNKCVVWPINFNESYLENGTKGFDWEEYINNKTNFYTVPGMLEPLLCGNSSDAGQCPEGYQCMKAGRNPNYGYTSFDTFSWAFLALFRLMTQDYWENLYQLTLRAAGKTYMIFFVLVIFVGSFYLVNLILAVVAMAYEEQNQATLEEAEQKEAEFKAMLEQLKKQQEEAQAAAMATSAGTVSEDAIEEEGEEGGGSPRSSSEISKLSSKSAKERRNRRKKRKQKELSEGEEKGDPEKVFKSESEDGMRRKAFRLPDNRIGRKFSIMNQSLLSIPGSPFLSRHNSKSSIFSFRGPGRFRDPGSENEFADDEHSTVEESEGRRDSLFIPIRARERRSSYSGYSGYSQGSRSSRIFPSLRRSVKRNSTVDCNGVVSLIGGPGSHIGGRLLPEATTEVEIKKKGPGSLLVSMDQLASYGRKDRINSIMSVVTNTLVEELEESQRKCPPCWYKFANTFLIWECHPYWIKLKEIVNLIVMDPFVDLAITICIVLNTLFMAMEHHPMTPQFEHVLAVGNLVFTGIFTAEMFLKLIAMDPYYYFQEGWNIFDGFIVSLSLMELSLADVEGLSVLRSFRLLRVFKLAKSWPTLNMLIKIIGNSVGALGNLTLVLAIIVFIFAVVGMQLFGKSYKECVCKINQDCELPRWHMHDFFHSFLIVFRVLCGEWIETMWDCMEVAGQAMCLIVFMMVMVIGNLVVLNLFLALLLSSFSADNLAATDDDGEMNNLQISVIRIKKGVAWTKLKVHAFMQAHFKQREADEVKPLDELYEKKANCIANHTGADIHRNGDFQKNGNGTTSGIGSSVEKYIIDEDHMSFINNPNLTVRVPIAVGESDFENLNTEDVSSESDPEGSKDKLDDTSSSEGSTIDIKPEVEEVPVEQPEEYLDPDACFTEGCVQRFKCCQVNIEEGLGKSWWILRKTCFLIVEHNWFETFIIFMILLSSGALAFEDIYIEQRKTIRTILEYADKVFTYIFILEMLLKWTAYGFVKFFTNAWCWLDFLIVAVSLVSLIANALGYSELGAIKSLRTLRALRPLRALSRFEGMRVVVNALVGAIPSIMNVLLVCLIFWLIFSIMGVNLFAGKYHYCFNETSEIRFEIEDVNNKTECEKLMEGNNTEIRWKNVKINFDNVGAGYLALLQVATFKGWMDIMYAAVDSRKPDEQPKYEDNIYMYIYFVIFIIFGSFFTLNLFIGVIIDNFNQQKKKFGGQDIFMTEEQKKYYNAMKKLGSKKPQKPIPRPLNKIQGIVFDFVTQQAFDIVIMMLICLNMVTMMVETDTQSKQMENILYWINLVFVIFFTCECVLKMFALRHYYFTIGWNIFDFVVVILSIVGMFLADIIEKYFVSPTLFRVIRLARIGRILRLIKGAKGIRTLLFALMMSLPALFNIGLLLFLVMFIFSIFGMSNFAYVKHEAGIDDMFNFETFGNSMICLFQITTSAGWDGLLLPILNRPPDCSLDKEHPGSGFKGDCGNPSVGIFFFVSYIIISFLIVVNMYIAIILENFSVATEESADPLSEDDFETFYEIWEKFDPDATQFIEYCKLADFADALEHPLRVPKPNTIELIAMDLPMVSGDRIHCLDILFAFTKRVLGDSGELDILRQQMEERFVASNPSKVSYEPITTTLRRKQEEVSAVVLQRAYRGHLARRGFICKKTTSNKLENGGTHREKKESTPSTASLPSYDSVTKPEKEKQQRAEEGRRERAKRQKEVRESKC
Sequence (Q07699 whole entry partner, looked up): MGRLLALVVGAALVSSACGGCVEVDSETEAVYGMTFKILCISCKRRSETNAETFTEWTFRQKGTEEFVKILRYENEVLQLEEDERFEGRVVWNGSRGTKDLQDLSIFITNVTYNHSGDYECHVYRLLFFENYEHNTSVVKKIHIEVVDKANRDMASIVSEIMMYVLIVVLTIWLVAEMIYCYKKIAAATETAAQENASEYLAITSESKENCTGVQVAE
ASSAY_OVERVIEW: Sodium Influx Assay (Flux), NaV1.6
MEASUREMENT_CONDITIONS: read-out: Flux NaV1.6 IC50; Trex HEK293 cells, ANG2 dye; arithmetic mean
Structures can show the parent of a compound that is named as a salt.
A value of pIC50 is the negative decimal logarithm of a concentration given in moles per litre.

# annotated cases, reported pIC50 shown
> print(dat)
                                   compound  test.value
1  CN(c1cc(F)c(S(=O)(=O)Nc2cccc(F)n2)cc1Cl)[C@H]1CCN(C(C)(C)c2ccccc2)C1 [Example 260, 2,2,2-trifluoroacetate]        5.77
2  COC(=O)c1cccc(CN2CC[C@H](N(C)c3cc(F)c(S(=O)(=O)Nc4cscn4)cc3Cl)C2)c1        5.04
3  CN(c1cc(F)c(S(=O)(=O)Nc2cscn2)cc1Cl)[C@H]1CCN([C@@H]2CCc3ccccc32)C1 [Example 246, 2,2,2-trifluoroacetate]        6.20
4  CC(c1ccccc1)N1CCC(Oc2cc(F)c(S(=O)(=O)Nc3nccs3)cc2Cl)CC1 (stereo not shown)        6.81
5  CC(C)(c1ccccc1)N1CCC(Oc2cc(F)c(S(=O)(=O)Nc3nccs3)cc2Cl)CC1 [Example 60, 2,2,2-trifluoroacetate]        6.34

Query: Enter measured pIC50, system NaV1.6 (Homo sapiens (Human)), for the compound shown: CN(c1ccc(S(=O)(=O)Nc2ncns2)cc1Cl)[C@H]1CCN(Cc2ccccc2)C1 [Example 29, hydrochloride salt]
Reply: 6.61

Query: Enter measured pIC50, system NaV1.6 (Homo sapiens (Human)), for the compound shown: CN(c1ccc(S(=O)(=O)Nc2ncns2)cc1Cl)[C@@H]1CCN(Cc2ccccc2)C1 [Example 68, 2,2,2-trifluoroacetate]
Reply: 5.85

Query: Enter measured pIC50, system NaV1.6 (Homo sapiens (Human)), for the compound shown: Cc1cc(C)cc(CN2CC[C@@H](Oc3ccc(S(=O)(=O)Nc4ncns4)cc3Cl)C2)c1 [Example 98, 2,2,2-trifluoroacetate]
Reply: 5.12

Query: Enter measured pIC50, system NaV1.6 (Homo sapiens (Human)), for the compound shown: COc1ccc(F)c(CN2CC[C@H](N(C)c3cc(F)c(S(=O)(=O)Nc4cscn4)cc3Cl)C2)c1 [Example 173, 2,2,2-trifluoroacetate]
Reply: 5.48

Query: Enter measured pIC50, system NaV1.6 (Homo sapiens (Human)), for the compound shown: "O=S(=O)(Nc1cscn1)c1ccc(O[C@@H]2C[C@H]3CC[C@@H](C2)N3Cc2cc(Cl)ccc2F)c(Cl)c1"
Reply: 5.41

Query: Enter measured pIC50, system NaV1.6 (Homo sapiens (Human)), for the compound shown: "O=S(=O)(Nc1nccs1)c1ccc(OC2CCN(Cc3ccccn3)CC2)c(Cl)c1"
Reply: 6.26

Query: Enter measured pIC50, system NaV1.6 (Homo sapiens (Human)), for the compound shown: CN(c1cc(F)c(S(=O)(=O)Nc2cscn2)cc1Cl)[C@H]1CCN(Cc2ccc(C(F)(F)F)o2)C1 [Example 164, 2,2,2-trifluoroacetate]
Reply: 5.35

Query: Enter measured pIC50, system NaV1.6 (Homo sapiens (Human)), for the compound shown: O=S(=O)(Nc1nccs1)c1ccc(OC2CCN(Cc3ccc4ccccc4c3)CC2)c(Cl)c1 [Example 51, 2,2,2-trifluoroacetate]
Reply: 5.18

These measurements were taken from patent US10246453B2.
